Sourced from ChEMBL document CHEMBL5614446

target: Proto-oncogene tyrosine-protein kinase receptor Ret (Homo sapiens, UniProt P07949, V804M); test: Inhibition of human RET kinase-V804M mutant using RRRRRRRRRRRVYSTDYYRLFNPS as substrate in presence of [gamma33P]-ATP and 10 uM ATP by radiometric HotSpot assay
Sequence (P07949 29-1114 V804M limits assumed): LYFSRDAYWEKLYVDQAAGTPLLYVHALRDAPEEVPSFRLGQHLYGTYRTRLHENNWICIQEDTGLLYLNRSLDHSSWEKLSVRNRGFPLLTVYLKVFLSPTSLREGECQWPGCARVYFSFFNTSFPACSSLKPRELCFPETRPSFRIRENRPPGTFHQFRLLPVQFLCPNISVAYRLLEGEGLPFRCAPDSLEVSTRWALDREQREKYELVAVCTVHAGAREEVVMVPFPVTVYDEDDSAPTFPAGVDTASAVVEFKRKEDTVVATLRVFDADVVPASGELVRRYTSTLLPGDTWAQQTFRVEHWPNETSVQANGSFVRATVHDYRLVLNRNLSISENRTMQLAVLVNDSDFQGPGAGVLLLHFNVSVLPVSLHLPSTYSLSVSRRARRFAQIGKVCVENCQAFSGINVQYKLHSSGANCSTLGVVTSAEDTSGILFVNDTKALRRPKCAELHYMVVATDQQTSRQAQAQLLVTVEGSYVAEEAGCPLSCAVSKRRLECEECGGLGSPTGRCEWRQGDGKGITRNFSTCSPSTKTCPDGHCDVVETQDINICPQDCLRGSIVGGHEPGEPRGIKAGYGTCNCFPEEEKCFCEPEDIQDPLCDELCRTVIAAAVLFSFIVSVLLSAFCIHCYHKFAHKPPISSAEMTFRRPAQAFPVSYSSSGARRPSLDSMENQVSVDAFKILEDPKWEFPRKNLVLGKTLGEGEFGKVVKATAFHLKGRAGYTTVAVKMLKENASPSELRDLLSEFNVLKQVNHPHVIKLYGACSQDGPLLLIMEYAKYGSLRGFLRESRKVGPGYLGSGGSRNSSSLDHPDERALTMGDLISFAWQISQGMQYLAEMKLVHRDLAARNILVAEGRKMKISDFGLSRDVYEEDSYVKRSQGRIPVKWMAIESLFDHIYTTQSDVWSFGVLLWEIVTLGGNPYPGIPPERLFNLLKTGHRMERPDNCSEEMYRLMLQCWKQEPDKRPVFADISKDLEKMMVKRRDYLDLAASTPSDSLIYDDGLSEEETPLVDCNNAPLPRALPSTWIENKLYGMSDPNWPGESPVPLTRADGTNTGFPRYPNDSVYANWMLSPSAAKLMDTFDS
pIC50: −log10 of the molar value.
assay_readout: pIC50

A: CCOC(=O)c1nc2ccc(Nc3cc(C)[nH]n3)nn2c1C#Cc1cc(C(=O)Nc2cc(-n3cnc(C)c3)cc(C(F)(F)F)c2)ccc1C
B: Cc1cn(-c2cc(NC(=O)c3cc(C#Cc4cnc5ccc(OCCN6CCOCC6)nn45)c(C)cc3F)cc(C(C)(C)C#N)c2)cn1
C: COc1ccc(Nc2ccc3ncc(C#Cc4cc(C(=O)Nc5cc(CN6CCN(C)CC6)cc(C(F)(F)F)c5)ccc4C)n3n2)cc1
D: Cc1ccc(C(=O)Nc2cc(CN3CCN(C)CC3)cc(C(F)(F)F)c2)cc1C#Cc1cnc2ccc(N3CCOCC3)nn12
[Q] Rank the listed compounds by pIC50, largest first. Please write the labels in the order that was asked for.
[A] D, C, B, A

---

system: BaF3; experiment: Cytotoxicity against mouse BaF3 cells expressing […]-RET kinase-G810C mutant fusion protein assessed as inhibition of cell proliferation incubated for 72 hrs by CCK8 assay; type: functional, cell-based; conditions: BaF3, 72 h
assay_readout: pIC50
Note: pIC50 values are expressed as the negative base-10 logarithm of concentration in M.

Known results for molecules:
Cc1cn(-c2cc(NC(=O)c3cc(C#Cc4cnc5ccc(OCCN6CCOCC6)nn45)c(C)cc3F)cc(C(C)(C)C#N)c2)cn1 : 6.22
COc1ccc(CN2C3CC2CN(c2ccc(-c4cc(OCC(C)(C)O)cn5ncc(C#N)c45)cn2)C3)cn1 [SELPERCATINIB] : 5.24
CCOC(=O)c1nc2n(c1C#Cc1cc(C(=O)Nc3cc(-n4cnc(C)c4)cc(C(F)(F)F)c3)ccc1C)NC(NC1CC1)C=C2 (centres undefined) : 5.54

Here is the next item to consider.
[Q] Please give measured pIC50 of the following entry: CCOC(=O)c1nc2ccc(NCCN3CCCCC3)nn2c1C#Cc1cc(C(=O)Nc2cc(-n3cnc(C)c3)cc(C(C)(C)C#N)c2)c(NCCN2CCCCC2)cc1C
[A] 5.77

---

test: Inhibition of human […]-RET kinase-V804M mutant in presence of [gamma33P]-ATP and 10 uM ATP by radiometric HotSpot assay
assay_readout: IC50 (nM)

COc1ccc(Nc2ccc3ncc(C#Cc4cc(C(=O)Nc5cc(CN6CCN(C)CC6)cc(C(F)(F)F)c5)ccc4C)n3n2)cc1 : 137

P: Cc1ccc(C(=O)Nc2ccc(CN3CCN(C)CC3)c(C(F)(F)F)c2)cc1C#Cc1cnc2ccc(OCCNC(C)C)nn12
Q: Cc1ccc(C(=O)Nc2cc(CN3CCN(C)CC3)cc(C(F)(F)F)c2)cc1C#Cc1cnc2ccc(N3CCOCC3)nn12
[Q] Lower value of IC50 belongs to which: P or Q ? State the label of the item chosen.
[A] P

---

system: BaF3; assay: Cytotoxicity against mouse BaF3 cells expressing […]-RET kinase-G810S mutant fusion protein assessed as inhibition of cell proliferation incubated for 72 hrs by CCK8 assay; assay type: functional, cell-based; conditions: BaF3, 72 h
Reported values of IC50 for individual entries
Kindly answer with a numeric value in nM, unit omitted.

Cc1cn(-c2cc(NC(=O)c3cc(C#Cc4cnc5ccc(OCCN6CCOCC6)nn45)c(C)cc3F)cc(C(C)(C)C#N)c2)cn1 : 100
COc1ccc(CN2C3CC2CN(c2ccc(-c4cc(OCC(C)(C)O)cn5ncc(C#N)c45)cn2)C3)cn1 : 400
CCOC(=O)c1nc2n(c1C#Cc1cc(C(=O)Nc3cc(-n4cnc(C)c4)cc(C(F)(F)F)c3)ccc1C)NC(NC1CC1)C=C2 (centres undefined) : 3000

Consider the record given below.
[Q] Identify the reported IC50 for the following entry. CCOC(=O)c1nc2ccc(NCCN3CCCCC3)nn2c1C#Cc1cc(C(=O)Nc2cc(-n3cnc(C)c3)cc(C(C)(C)C#N)c2)c(NCCN2CCCCC2)cc1C
[A] 1600
